system: intestinal alkaline phosphatase [Mus musculus]; experiment: mouse intestinal phosphatase enzyme activation – biochemical, luminescence, single concentration, confirmation (AID 434970); conditions: purified mouse IAP, CDP-Star luminescence, 30 min, at 10 µM; measured here: IAP activation factor, stronger effect = higher value
The whole screen tested about 11,000 compounds, of which about 310 (2.8%) were called active. The entries come from a sample that favours actives as a whole.
This section presents compounds with their documented activation factor values.

Below are worked cases with known answers.
compound	activation factor
Cc1cc(Br)cc2c1NC(=O)C2(c1c(C)n(C)n(-c2ccccc2)c1=O)c1c(C)n(C)n(-c2ccccc2)c1=O	1.02
O=C(Nc1cccc(-c2cccc(Cl)c2)c1)C1CCN(CC2CCOC2)CC1 (stereo unspecified)	2.32
O=C(Nc1cccc(-c2cccc(Cl)c2)c1)C1CCN(Cc2ccon2)CC1	1.73
CCN(Cc1cc2ccccc2[nH]c1=O)S(=O)(=O)c1ccccc1	1.02
CCOC(=O)c1sc(NC(=O)Nc2cccc(Cl)c2)cc1C	1.83
CCOc1cc(/C=N\NC(=O)c2ccc(NC(=O)CC)cc2)ccc1OC(=O)c1ccccc1	1.02
CCC(=O)N1c2ccccc2NC2=C(C(=O)CCC2)C1c1ccc(N(C)C)cc1 (stereo unspecified)	1.18
CC(O)c1cccc(NC(=O)Nc2cccc(NC(=O)Nc3cccc(C(C)O)c3)c2)c1 (stereo unspecified)	1.89

Enquiry: Return reported activation factor; argument: `O=C(Nc1cccc(-c2cccc(Cl)c2)c1)C1CCN(Cc2ccc(CO)o2)CC1`
Return: 2.61

Enquiry: // repeat for `CC(C)OC(=O)NCCOC(=O)Nc1cccc(Cl)c1` and report
Return: 2.12

Enquiry: Now this one: `COc1ccc(CC(=O)N[C@@H]2c3ccccc3CC[C@@H]2OCc2ccccc2)cc1`
Return: 1.19

Enquiry: // repeat for `CC(C)N(C(=O)[C@H]1C[C@H](CC(=O)NCCc2ccccn2)C(=O)N2CCc3c([nH]c4cc(-c5ccco5)ccc34)[C@]12C)C(C)C` and report
Return: 1.14

Enquiry: Entry `Nc1ncnc2c1ncn2[C@@H]1O[C@H](CNC(=O)[C@@H](N)CO)[C@@H](O)[C@H]1O` please
Return: 0.992

Enquiry: Try this compound too: `N#CCc1ccc(NC(=O)Nc2cccc(Cl)c2)cc1`
Return: 1.88

Enquiry: Now consider `CN(C)CCCNC(=O)C[C@H]1C[C@H](C(=O)N2CCCCC2)[C@@]2(CCc3ccccc3)c3[nH]c4cc(CCC(=O)N(C)C)ccc4c3CCN2C1=O` .
Return: 1.1

---

tested on: intestinal alkaline phosphatase [Mus musculus]; experiment: mouse intestinal phosphatase enzyme activation – biochemical, luminescence, single concentration, confirmation (AID 434970); details: purified mouse IAP, CDP-Star luminescence, 30 min, at 10 µM; measured here: IAP activation factor, stronger effect = higher value
Out of some 11,000 compounds screened, about 310 (2.8%) were called active. The sample as a whole holds a higher share of actives than the screen did.
measuredAttribute: activation factor

Below, 6 compounds whose answers are already recorded.
compound	measuredAttribute	experimentalValue
CCOC(=O)CN1C(=O)/C(=C2\SC(=S)N(NC(=O)c3cccnc3)C2=O)c2ccccc21	activation factor	0.472
O=C(Nc1ccc(Br)cc1)Nc1ccccc1Cl	activation factor	1.39
CN1CC(COCc2ccccc2)Oc2ccccc2S1(=O)=O (stereo not drawn)	activation factor	1.04
Cc1ccc(C2=NN3C(C(=O)c4ccccc4)Oc4ccccc4C3C2)cc1 (stereo not drawn)	activation factor	0.916
COc1ccc2[nH]c3c(c2c1)CCN1C(=O)C(CC(=O)NCCCN(C)C)C[C@H](C(=O)N(C(C)C)C(C)C)[C@@]31C (stereo partly drawn)	activation factor	1.14
Cc1ccc(NC(=O)N2CCC(NC(=O)c3ccccc3C)CC2)cc1	activation factor	0.993

Enquiry: Tell me the measured activation factor of `CCCN=C1N(CC)C[C@@H]2[C@@H]3C(=O)N(Cc4ccccc4)C(=O)[C@@H]3[C@](Cc3ccccc3)(C(=O)OC)N12` , please.
Return: 1.07
